Assay: chemical genetic growth profiling, strain panel (AID 1159580);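 further: tested at 20 µM; growth read once vehicle control cultures reached saturation at 30 °C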
Settings: S. cerevisiae deletion strains, growth OD, locus YLR258W, strain gsy2, active compounds read low
Screen size: about 5,500 compounds; about 2,000 (36%) were called active. About 18% were inconclusive and are not listed. The list shows a part of the results.
Rule for this label: satisfied means normalized growth is less than 1; not satisfied means normalized growth is at least 1.

{"columns": ["COMPOUND", "QUALITATIVE_LABEL"],
 "data": [
  ["Cc1ccc(Cl)c(Nc2ccccc2C(=O)O)c1Cl", "satisfied"],
  ["COc1cc(OC)c2c(=O)c(-c3ccccc3)coc2c1", "satisfied"],
  ["C=C1CCC(C2CC(=O)OC2=O)C(=O)CCC2C1CC2(C)C (configuration not stated)", "not satisfied"],
  ["CCC(C)(C)C(=O)O[C@H]1C[C@@H](C)C=C2C=C[C@H](C)[C@H](CC[C@@H]3C[C@@H](O)CC(=O)O3)[C@H]21", "satisfied"],
  ["Cc1c(Cl)cccc1Nc1ccccc1C(=O)O", "satisfied"],
  ["COc1cc2occ(-c3ccccc3)c(=O)c2c(OC)c1C", "satisfied"]
]}

Recorded values, source PubChem BioAssay AID1159580.
